Just for reference, PubChem BioAssay AID179 is where these values come from.

Tested on: CEM cells HIV-1 protection, formazan growth assay
Test: NCI AIDS Antiviral Assay
Conditions: measured here: growth of uninfected CEM cells
Entries and their IC50 values follow.

| compound | result_units | result_qualifier | IC50 |
| --- | --- | --- | --- |
| CNC(=O)CN(CC(N)=O)C(=O)NC | µM | > | 891 |
| Cc1c2ccc(Cl)cc2nc2ccc(OCCNC(=O)[C@H](CCCN=C(N)N)NC(=O)OC(C)(C)C)cc12 | µM | = | 89.1 |
| CCOC(=O)/C(=C\c1ccc(CO)o1)P(=O)(OCC)OCC | µM | = | 30.9 |
| CC([C@H]1CCC2[C@@H]3CCC4C(=O)C(NC(=O)c5ccccc5)=CC[C@]4(C)C3CC[C@@]21C)N(C)C (stereo not given in full) | µM | = | 1.32 |
| O=[N+]([O-])c1cccnc1-n1cnc2ccccc21 | µM | > | 100 |
